UniProtKB P08253: reported IC50 for various molecules.
Sequence (P08253 whole entry): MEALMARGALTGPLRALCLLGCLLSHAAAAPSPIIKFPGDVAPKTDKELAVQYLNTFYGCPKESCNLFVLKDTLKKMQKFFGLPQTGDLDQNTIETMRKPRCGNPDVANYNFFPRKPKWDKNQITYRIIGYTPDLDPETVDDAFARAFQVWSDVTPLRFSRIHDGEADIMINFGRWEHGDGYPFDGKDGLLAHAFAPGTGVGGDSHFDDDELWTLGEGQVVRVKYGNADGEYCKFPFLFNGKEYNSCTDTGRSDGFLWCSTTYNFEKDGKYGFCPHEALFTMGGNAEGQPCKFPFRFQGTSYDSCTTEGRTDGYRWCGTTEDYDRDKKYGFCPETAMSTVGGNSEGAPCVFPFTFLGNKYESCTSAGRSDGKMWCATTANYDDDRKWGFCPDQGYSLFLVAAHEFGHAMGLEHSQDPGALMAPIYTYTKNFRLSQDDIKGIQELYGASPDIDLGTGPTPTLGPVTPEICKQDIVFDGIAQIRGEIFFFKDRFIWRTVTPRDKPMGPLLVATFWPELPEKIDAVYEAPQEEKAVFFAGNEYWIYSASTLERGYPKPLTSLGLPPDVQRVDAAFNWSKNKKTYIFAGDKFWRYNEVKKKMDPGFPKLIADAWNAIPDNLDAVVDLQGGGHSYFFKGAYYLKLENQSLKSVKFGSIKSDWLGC
Quick note: give the figure in nM, leave out the unit.

O=C(O)Cc1ccccc1S(=O)(=O)c1ccc(-c2ccc(NC(=O)CF)cc2)cc1	61

**Query** What value of measured IC50 is listed for O=C(O)Cc1ccccc1S(=O)(=O)c1ccc(-c2ccc(F)cc2)cc1 ?
**Result** 230
